- experiment-description: Solubility assessment of amorphous RAD1901-2HCl in water/organic solvent system
- Assay type: physicochemical
- condition-description: EtOH/H2O (98:2), organic solvent or mixture, thermodynamic from solid, EtOH/H2O (98:2); sample ID C3; read-out: Solubility assessment 10 vol.
- Procedure: Samples of amorphous RAD1901-2HCl were prepared in water/organic solvent mixtures containing varying ratios of water. The organic solvents chosen were anhydrous ethanol, methanol and ethyl acetate. […] The water activity values for each water/organic solvent mixture are provided in Table 16, and were calculated using the reference given in Bell, Halling, Enzyme Microbiol. […]
measurement-label: solubility

compound: CCNCCc1ccc(CN(CC)c2cc(OC)ccc2[C@@H]2CCc3cc(O)ccc3C2)cc1.Cl.Cl [amorphous RAD1901-2HCl]
result: < 100 mg/mL
